Recorded values, source PubChem BioAssay.

Assay: probe aXIP binding to arrayed compounds – biochemical, NeuroSMM set, 635/667 nm fluorescence, primary screen (AID 1119);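 also: probe is the protein aXip251-270 applied at 1 µg/mL to compound-printed slides; binding of probe to printed compounds measured as 667 nm fluorescence plus signal to noise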
Details: small-molecule microarray, higher = more signal, called active from +8 up or from −8 down
Value Kind: composite Z-score
Numbers only.

Worked set:
>  <Compound>
CCOC(=O)C[C@H]1[C@H](OC(=O)c2ccccc2-c2ccccc2)[C@@H](NC(=O)c2ccccc2)c2cc(OCCCO)ccc2N1C(=O)Cc1ccc(OC)cc1

>  <composite Z-score>
-0.0282

$$$$
>  <Compound>
CC(C)c1ccc(NN2C(C(O)c3ccccn3)C=CC3C(=O)N(c4ccccc4)C(=O)C32)cc1 (configuration not stated)

>  <composite Z-score>
-0.232

$$$$

Provide composite Z-score for all items below, preserving their order.
1. Cc1ccccc1C(O)C1C=CC2C(=O)N(C)C(=O)C2N1Nc1ccc([N+](=O)[O-])cc1[N+](=O)[O-] (configuration not stated)
2. CC1CC/C=C\[C@H]2OC34C=CCN(c5ccc(Cl)cc5)C(=O)[C@H]3N(C(CO)C(C)C)C(=O)[C@]4(C)C2C(=O)O1 (some centres not stated)
3. CC(C)CNC(=O)[C@@]1(c2ccc([N+](=O)[O-])cc2)CC(=O)N(C(C)C)[C@@H]1c1ccc(CO)cc1
4. COC(=O)[C@@]1(Cc2ccc(OC)cc2)[C@H]2c3cc(C(=O)N4CCCC4)n(CCF)c3C[C@H]2CN1C(=O)c1ccccc1
5. COC(=O)C(CC#Cc1ccc2c(c1)[C@]1(C(=O)N2)[C@H](c2ccc(O)cc2)N2[C@H](c3ccccc3)[C@H](c3ccccc3)OC(=O)[C@H]2[C@@H]1C(=O)O)C(=O)OC

Output:
0.451
-0.0965
1
0.573
0.877

* * *

Test: probe aNog binding to arrayed compounds – biochemical, biotinylated probe, 635/667 nm fluorescence, primary screen (AID 1115);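 also: probe is biotinylated aNog protein used at 0.15 µg/mL for 1 h at 4 C; z-score combines 667 nm fluorescence of each spot with its signal to noise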
Conditions: small-molecule microarray, higher = more signal
Value Kind: composite z-score
Answers are plain numbers.

>  <Compound>
COCCOC(=O)N1C(=O)[C@@]2(c3cc(C#CCCO)ccc31)[C@H](C(=O)NC[C@H](O)c1ccccc1)[C@H]1C(=O)O[C@H](c3ccccc3)[C@H](c3ccccc3)N1[C@@H]2c1ccccc1OCCO

>  <composite z-score>
1.36

$$$$
>  <Compound>
C=CC[C@@]1(C(=O)NCCN2CCOCC2)N=C(c2ccc(OCCCO)cc2)O[C@@H]1c1ccccc1

>  <composite z-score>
1

$$$$
>  <Compound>
COCC(=C=CC[C@@H](O)c1ccccc1OCCO)C[C@@H](O)COCc1ccccc1

>  <composite z-score>
0.998

$$$$
>  <Compound>
CCCc1cc2c(n1Cc1ccc(OC)cc1)C(C)C1CN(C(=O)c3ccccc3)C(C)(C(=O)OC)C21 (stereo not given)

>  <composite z-score>
1.26

$$$$
>  <Compound>
COCCCNC(=O)[C@@H]1c2ccccc2C(=O)N(Cc2cc(F)cc(C(F)(F)F)c2)[C@H]1c1ccc(CO)cc1

>  <composite z-score>
-0.285

$$$$
>  <Compound>
O=C(O)[C@@]1(Cc2ccccc2)COC(c2ccc(OCCCO)cc2)=N1

>  <composite z-score>
0.0254

$$$$
>  <Compound>
CO[C@H]1O[C@H](CO)[C@@H](OC(=O)Nc2ccc(C(F)(F)F)cc2)[C@H](OC(=O)Nc2ccccc2)[C@H]1OC(=O)Nc1ccccc1

>  <composite z-score>
1.18

$$$$
>  <Compound>
CN(C)C(=O)[C@@]1(CCC(=O)OC(C)(C)C)COC(c2ccc(OCCCO)cc2)=N1

>  <composite z-score>
1.52

$$$$
>  <Compound>
CC(C)CCC[C@@H](C)[C@H]1CC[C@@]2(C)C3=C(CC[C@]12C)[C@@]1(C)CC[C@H](OC(=O)c2ccc(N)cc2)C(C)(C)C1CC3 (stereo not given in full)

>  <composite z-score>
-0.427

$$$$
>  <Compound>
CC(C)NC(=O)[C@@]1(Cc2ccccc2I)c2ccccc2C(=O)N(Cc2ccccc2C(F)(F)F)[C@H]1c1ccc(CO)cc1

>  <composite z-score>
0.647

$$$$

Provide composite z-score for all items below, preserving their order.
1. C=C(C(=O)CC[C@H](OC(=O)c1cccnc1)c1ccc(OCCO)cc1)C(C)C
2. CCCC[C@@H](O)C1=C(COc2ccccc2)Cn2c(=O)n(-c3ccccc3)c(=O)n2[C@H]1CO
3. [N-]=[N+]=Nc1ccccc1C[C@]1(C(=O)NCCN2CCOCC2)N=C(c2ccc(OCCCO)cc2)O[C@H]1c1ccccc1N=[N+]=[N-]
4. CO[C@H]1O[C@H](CO)[C@@H](OC(=O)c2ccc(Br)cc2)[C@@H]2OC(=O)[C@H](Cc3cccc(Br)c3)C/C=C/C[C@@H](Cc3cccc(Br)c3)C(=O)O[C@@H]12
5. COCCOC(=O)N1C(=O)[C@@]2(c3cc(C#CCNC(N)=O)ccc31)[C@H](c1ccc(OCCO)cc1)N1[C@H](c3ccccc3)[C@H](c3ccccc3)OC(=O)[C@H]1[C@@H]2C(=O)N1CCN(c2ncccn2)CC1
6. CCC[C@@H]1C[C@@]1(CCC)[C@@H](NC(=O)c1ccco1)c1ccc(Cl)cc1
7. Cc1ccccc1C(O)C1C=CC2C(=O)N(Cc3ccccc3)C(=O)C2N1n1cnnc1 (stereo not given)

Output:
-0.196
-0.182
1.85
-0.172
-0.0724
0.756
0.2

* * *

System: glycogen synthase kinase-3 (GSK3A per assay name; protocol says GSK3B)
Assay: compounds binding glycogen synthase kinase-3 – biochemical, small-molecule microarray, 635 nm fluorescence, GSK3A, primary screen (AID 1103); also: the record names both GSK3A and GSK3B
Settings: fluorescence 635 nm, higher = more signal
For each entry below, report its composite z-score value.
Answers are plain numbers.

Worked set:
>  <Compound>
CC1CC/C=C\[C@H]2OC34C=CCN(Cc5ccccc5)C(=O)[C@H]3N(CCO)C(=O)[C@@H]4C2C(=O)O1 (some centres undefined)

>  <Value Kind>
composite z-score

>  <Reported Value>
-0.252

$$$$
>  <Compound>
O=C1C[C@@](C(=O)O)(c2ccc([N+](=O)[O-])cc2)[C@@H](c2ccc(CO)cc2)N1CC12CC3CC(CC(C3)C1)C2

>  <Value Kind>
composite z-score

>  <Reported Value>
0.386

$$$$
>  <Compound>
CCCCC(=C=CC[C@H](O)c1cccc(OCCO)c1)C[C@H](O)COCc1ccccc1

>  <Value Kind>
composite z-score

>  <Reported Value>
-0.207

$$$$

--- query ---
Input: Quick one: composite z-score for `COC(=O)[C@@]1(Cc2ccc(F)cc2)[C@H]2c3cc(C(=O)N4CCCC4)n(Cc4ccccc4)c3C[C@H]2CN1C(=O)c1ccccc1` ?
Output: 0.376

* * *

System: Sonic hedgehog protein (Shh)
Assay: Sonic hedgehog microarray binding compounds – biochemical, small-molecule microarray, 635/667 nm fluorescence, primary screen (AID 1151);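 also: Shh protein binding to compounds spotted on small-molecule microarray slides; score combines spot fluorescence intensity with signal-to-noise across triplicate slides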
Conditions: 635 nm fluorescence, higher = more signal
Class true: composite z-score at least 0.4. Class false: composite z-score below 0.4.

Please review the following examples before continuing.
>  <Compound>
O=C1O[C@H](c2ccccc2)[C@H](c2ccccc2)N2[C@H]1[C@@H](C(=O)NC[C@H](O)c1ccccc1)[C@]1(C(=O)Nc3ccccc31)[C@H]2c1ccccc1OCCO

>  <Class Label>
true

$$$$
>  <Compound>
COC(=O)[C@@]1(Cc2ccc(F)cc2)[C@H]2c3cc(C(=O)N(C)C)n(CCSCCO)c3C[C@H]2CN1C(=O)c1ccccc1

>  <Class Label>
false

$$$$
>  <Compound>
CC(C)C(CO)N1C(=O)[C@@H]2[C@H]3C(=O)OCC=C[C@H]3OC23C=CCN(Cn2nnc4ccccc42)C(=O)[C@@H]13 (stereo partly specified)

>  <Class Label>
false

$$$$
>  <Compound>
COCCOC(=O)N1C(=O)[C@@]2(c3cc(C#CCNC(N)=O)ccc31)[C@H](C(=O)N1CCCCCCC1)[C@H]1C(=O)O[C@H](c3ccccc3)[C@H](c3ccccc3)N1[C@@H]2c1ccc(OCCO)cc1

>  <Class Label>
true

$$$$
>  <Compound>
COc1ccc([Si](C)(C)[C@@H]2[C@@H](CC(=O)N3Cc4ccccc4C[C@H]3CO)O[C@]3(C(=O)N(Cc4cccc(N5CCCCC5=O)c4)c4ccccc43)[C@H]2C)cc1

>  <Class Label>
true

$$$$
>  <Compound>
COCCCNC(=O)[C@@]1(C)c2ccccc2C(=O)N(c2ccc(C)cn2)[C@H]1c1ccc(CO)cc1

>  <Class Label>
false

$$$$
>  <Compound>
COCCCNC(=O)[C@]1(Cc2ccccc2)N=C(c2ccc(OCCCO)cc2)O[C@@H]1c1ccccc1N=[N+]=[N-]

>  <Class Label>
false

$$$$
>  <Compound>
C=CCNC(=O)[C@H]1[C@@H]2C(=O)O[C@@H](c3ccccc3)[C@@H](c3ccccc3)N2[C@@H](c2ccc(O)cc2)[C@]12C(=O)N(C(=O)OCCOC)c1ccc(C#CC3(O)CCCCCC3)cc12

>  <Class Label>
true

$$$$
>  <Compound>
CCCCC(=C=CC[C@H](O)c1ccccc1OCCO)C[C@H](O)c1ccccn1

>  <Class Label>
true

$$$$
>  <Compound>
CC(C)C(CO)N1C(=O)[C@@H]2[C@H]3C(=O)OCC=C[C@H]3OC23C=CCN(CCN2CCOCC2)C(=O)[C@@H]13 (stereo partly specified)

>  <Class Label>
true

$$$$

Now turn to the next compound.
Input: Item `C=C(COC)/C(=C/C[C@@H](OC(=O)c1ccncc1)c1cccc(OCCO)c1)c1cc(C(=O)OC)ccc1OC` with composite z-score of 0.4 or above?
Output: true
